// reported zone of inhibition at 5000 µg/mL per item
- Test system: Bacillus subtilis
- assay: Antimicrobial activity against Bacillus subtilis RCMB 010063 assessed as diameter of zone inhibition at 5 mg/ml after 24 hrs by agar well diffusion assay
- Assay type: functional
- measurement.context: RCMB 010063, 24 h, read-out: DIZ
observable: zone of inhibition at 5000 µg/mL (mm)

compound=COc1ccc(C(=O)/C=C/c2ccc(Oc3ccc4ccccc4n3)cc2)cc1 value_measured=0
compound=CSc1nn(-c2ccc3ccccc3n2)c(N)c1C#N value_measured=19.8
compound=C(=N\Nc1ccc2ccccc2n1)/c1cn(-c2ccccc2)nc1-c1ccccc1 value_measured=23.2
compound=CCOC(=O)c1c(C)nn(-c2ccc3ccccc3n2)c1N value_measured=20.2
compound=Clc1ccc(-c2nn(-c3ccccc3)cc2/C=N/Nc2ccc3ccccc3n2)cc1 value_measured=27.6
compound="COc1ccc(C2CC(c3ccc(Oc4ccc5ccccc5n4)cc3)=NN2c2ccccc2)cc1 (stereo unspecified)" value_measured=28.7
compound="COc1ccc(C2=NN(c3ccccc3)C(c3ccc(Oc4ccc5ccccc5n4)cc3)C2)cc1 (stereo unspecified)" value_measured=0
compound=N#Cc1c(-c2cccc(Cl)c2)nn(-c2ccc3ccccc3n2)c1N value_measured=13.3
compound=Cc1nn(-c2ccc3ccccc3n2)c(N)c1C#N value_measured=20.9
compound=Cc1ccc(-c2nn(-c3ccccc3)cc2/C=N/Nc2ccc3ccccc3n2)cc1 value_measured=22.4
compound="COc1ccc(C2=NNC(c3ccc(Oc4ccc5ccccc5n4)cc3)C2)cc1 (stereo unspecified)" value_measured=19.4
compound="COc1ccc(C2CC(c3ccc(Oc4ccc5ccccc5n4)cc3)=NN2)cc1 (stereo unspecified)" value_measured=13.7
compound="Clc1ccccc1C1CC(c2ccc(Oc3ccc4ccccc4n3)cc2)=NN1 (stereo unspecified)" value_measured=24.2
compound=CCOC(=O)c1c(SC)nn(-c2ccc3ccccc3n2)c1N value_measured=19.8
compound=N#Cc1c(-c2ccc(Cl)cc2Cl)nn(-c2ccc3ccccc3n2)c1N value_measured=25.8
compound="Clc1ccccc1C1CC(c2ccc(Oc3ccc4ccccc4n3)cc2)=NN1c1ccccc1 (stereo unspecified)" value_measured=16.4

Values compiled from ChEMBL document CHEMBL4138150.
